Numbers sourced from the supplement of paper PMC6992640.

Test system: WHIM30 (cells of a triple-negative basal-like breast cancer xenograft)
Assay: cell viability (% of vehicle); higher = less cytotoxic
Conditions: 10 µM; 72 h
Quantity name: cell viability
# answer = number (no unit)

Reference set (2 entries):
CCC1(O)CC2CN(CCc3c([nH]c4ccccc34)C(C(=O)OC)(c3cc4c(cc3OC)N(C)C3C(O)(C(=O)OC)C(OC(C)=O)C5(CC)C=CCN6CCC43C65)C2)C1.O=S(=O)(O)O (stereo not given) [Vinblastine sulfate]    102
O=C1CCc2cc(OCCCCc3nnnn3C3CCCCC3)ccc2N1 [Cilostazol]    125

Query block: Read the entry Cc1ccc(-n2[nH]c(C)c(NN=C3C=CC=C(c4cccc(C(=O)O)c4)C3=O)c2=O)cc1C.NCCO.NCCO [Eltrombopag Olamine] and write its reported cell viability.
Result block: 104

Query block: Read the entry CC(NC(=O)C(O)C(C)C)C(=O)NC1C(=O)N(C)CCc2ccccc21 (stereo not given) and write its reported cell viability.
Result block: 184

Query block: Read the entry CC(C)(C)c1cc(NC(=O)Nc2ccc(-c3cn4c(n3)sc3cc(OCCN5CCOCC5)ccc34)cc2)no1 [Quizartinib (AC220)] and write its reported cell viability.
Result block: 193

Query block: Read the entry COc1ccc(CNc2nc(N3CCCC3CO)ncc2C(=O)NCc2ncccn2)cc1Cl (stereo not given) [Avanafil] and write its reported cell viability.
Result block: 135

Query block: Read the entry CC1COc2c(N3CCN(C)CC3)c(F)cc3c(=O)c(C(=O)O)cn1c23 (stereo not given) [Ofloxacin] and write its reported cell viability.
Result block: 159

Query block: Read the entry O=c1nc[nH]c2c1ncn2C1CCC(CO)O1 (stereo not given) [Didanosine] and write its reported cell viability.
Result block: 90.6

Query block: Read the entry Cl.O=C1CN2Cc3c(ccc(Cl)c3Cl)NC2=N1 [Anagrelide HCl] and write its reported cell viability.
Result block: 98.1

Query block: Read the entry CC(=O)O.NC(N)=NN=Cc1c(Cl)cccc1Cl [Guanabenz Acetate] and write its reported cell viability.
Result block: 110

Query block: Read the entry CC1OC(OCC2OC(Oc3c(-c4ccc(O)c(O)c4)oc4cc(O)cc(O)c4c3=O)C(O)C(O)C2O)C(O)C(O)C1O (stereo not given) [Rutin] and write its reported cell viability.
Result block: 101

---

cell viability values by entry
Test system: WHIM30
Assay: cell viability (% of vehicle); higher = less cytotoxic
Conditions: 10 µM; 72 h
# answer = number (no unit)

CC(=O)O.CC(O)C(CO)NC(=O)C1CSSCC(NC(=O)C(N)Cc2ccccc2)C(=O)NC(Cc2ccccc2)C(=O)NC(Cc2c[nH]c3ccccc23)C(=O)NC(CCCCN)C(=O)NC(C(C)O)C(=O)N1 (stereo not drawn) [Octreotide acetate]    102
Cl.O=C1c2cccc3c2C(CCC3)CN1C1CN2CCC1CC2 (stereo not drawn) [Palonosetron HCl]    104

Next up:
Query block: Name the value of cell viability reported for CCCc1nc2c(C)cc(-c3nc4ccccc4n3C)cc2n1Cc1ccc(-c2ccccc2C(=O)O)cc1 when tested on WHIM30.
Result block: 146

---

cell viability values by entry
System: HCI11 (cells of an ER-positive luminal breast cancer xenograft)
Assay: cell viability (% of vehicle); higher = less cytotoxic
Settings: 10 µM; 72 h
# answer = number (no unit)

Cc1cc(Nc2ncc(Cl)c(Nc3ccccc3S(=O)(=O)C(C)C)n2)c(OC(C)C)cc1C1CCNCC1    29.3
Br.CN(C)CCC[C@]1(c2ccc(F)cc2)OCc2cc(C#N)ccc21 [Citalopram hydrobromide]    108
CC(C(=O)O)c1cccc(Oc2ccccc2)c1 (centres undefined) [Fenoprofen calcium hydrate]    89

Query block: Read the entry CNC(=O)c1cc(Oc2ccc(NC(=O)Nc3ccc(Cl)c(C(F)(F)F)c3)c(F)c2)ccn1 and write its reported cell viability.
Result block: 43.5

---

Test system: HCI16 (cells of a triple-negative basal-like breast cancer xenograft)
Test: cell viability (% of vehicle); higher = less cytotoxic
Conditions: 10 µM; 72 h
Quantity name: cell viability
# answer = number (no unit)

CC(=O)OCC[N+](C)(C)C.[Cl-] [Acetylcholine Chloride]    97.8

Query block: Read the entry CC(C)C(N)C(=O)OCCOCn1cnc2c(=O)nc(N)[nH]c21.Cl (stereo not drawn) [Valaciclovir HCl] and write its reported cell viability.
Result block: 106

Query block: Read the entry CC(O)C1C(=O)N2C(C(=O)O)=C(SC3CNC(CNS(N)(=O)=O)C3)C(C)C12.O (stereo not drawn) [Doripenem Hydrate] and write its reported cell viability.
Result block: 95.3

Query block: Read the entry Br.CN(C)CCC[C@]1(c2ccc(F)cc2)OCc2cc(C#N)ccc21 [Citalopram hydrobromide] and write its reported cell viability.
Result block: 129

Query block: Read the entry Cc1nc2c([nH]1)CCN(C(=O)c1ccc(NC(=O)c3ccccc3-c3ccccc3)cc1)c1ccccc1-2.Cl [Conivaptan HCl] and write its reported cell viability.
Result block: 106

---

cell viability of combination values by entry
System: WHIM30
Assay: cell viability of combination (% of vehicle); higher = less cytotoxic
Settings: 1 µM; 72 h; partner dose: 10 nM

CN(C(=O)CN(CCO)CC(=O)N(C)C(C)(C)Cc1ccccc1)C(C)(C)Cc1ccccc1 [Oxethazaine] + CC(C)C[C@H](NC(=O)[C@H](CCc1ccccc1)NC(=O)CN1CCOCC1)C(=O)N[C@@H](Cc1ccccc1)C(=O)N[C@@H](CC(C)C)C(=O)[C@@]1(C)CO1    20.8
Clc1ccc(COC(Cn2ccnc2)c2ccc(Cl)cc2Cl)cc1.O=[N+]([O-])O (centres undefined) [Econazole nitrate] + CC(C)C[C@H](NC(=O)[C@H](CCc1ccccc1)NC(=O)CN1CCOCC1)C(=O)N[C@@H](Cc1ccccc1)C(=O)N[C@@H](CC(C)C)C(=O)[C@@]1(C)CO1    17.7
CSc1ccc2c(c1)N(CCC1CCCCN1C)c1ccccc1S2.Cl (centres undefined) [Thioridazine HCl] + CC(C)C[C@H](NC(=O)[C@H](CCc1ccccc1)NC(=O)CN1CCOCC1)C(=O)N[C@@H](Cc1ccccc1)C(=O)N[C@@H](CC(C)C)C(=O)[C@@]1(C)CO1    17.7

Next up:
Query block: Name the value of cell viability of combination reported for CCCCCCCCCCCC1=C(O)C(=O)C=C(O)C1=O [Embelin] + CC(C)C[C@H](NC(=O)[C@H](CCc1ccccc1)NC(=O)CN1CCOCC1)C(=O)N[C@@H](Cc1ccccc1)C(=O)N[C@@H](CC(C)C)C(=O)[C@@]1(C)CO1 when tested on WHIM30.
Result block: 17.7

---

System: HCI01 (cells of a triple-negative basal-like breast cancer xenograft)
Test: cell viability (% of vehicle); higher = less cytotoxic
Details: 10 µM; 72 h
Counter-ions that a name gives are not always drawn.
Param label: returns YES when cell viability < 100, returns NO otherwise, including exact equality.

Consider the worked cases shown below.
CCc1ccc(CCOc2ccc(CC3SC(=O)NC3=O)cc2)nc1 (centres undefined) [Pioglitazone]    YES
COC(=O)C1=C(C)NC(C)=C(C(=O)OC2CCCN(Cc3ccccc3)C2)C1c1cccc([N+](=O)[O-])c1.Cl (centres undefined) [Benidipine HCl]    YES
NC(=O)c1ncn(C2OC(CO)C(O)C2O)c1O (centres undefined) [Mizoribine]    YES
CC(C)(C)NC(=O)C1CCC2C3CCC4NC(=O)C=CC4(C)C3CCC12C (centres undefined) [Finasteride]    NO
COc1ccc2cc(CCC(C)=O)ccc2c1 [Nabumetone]    NO

Query block: Input CC(COc1ccccc1)N(CCCl)Cc1ccccc1.Cl (centres undefined) [Phenoxybenzamine HCl] ; condition: cell viability strictly below 100. Does it hold?
Result block: NO

Query block: Input CCOC(=O)c1ncn2c1CN(C)C(=O)c1cc(F)ccc1-2 [Flumazenil] ; condition: cell viability strictly below 100. Does it hold?
Result block: NO

Query block: Input [O-][n+]1cccc(CO)c1 [Mepiroxol] ; condition: cell viability strictly below 100. Does it hold?
Result block: NO

Query block: Input Cn1nnc2c(C(N)=O)ncn2c1=O [Temozolomide] ; condition: cell viability strictly below 100. Does it hold?
Result block: NO

Query block: Input C[N+](C)(C)CC(O)CC(=O)[O-] [L-Carnitine inner salt] ; condition: cell viability strictly below 100. Does it hold?
Result block: NO

Query block: Input O=c1nc[nH]c2c1ncn2C1CCC(CO)O1 (centres undefined) [Didanosine] ; condition: cell viability strictly below 100. Does it hold?
Result block: NO

Query block: Input Cl.NC12CC3CC(CC(C3)C1)C2 [Amantadine HCl] ; condition: cell viability strictly below 100. Does it hold?
Result block: NO

Query block: Input Clc1ccc(C(Cn2ccnc2)OCc2csc3c(Cl)cccc23)c(Cl)c1.O=[N+]([O-])O (centres undefined) [Sertaconazole nitrate] ; condition: cell viability strictly below 100. Does it hold?
Result block: NO

Query block: Input CC(C[N+](C)(C)C)OC(N)=O.[Cl-] (centres undefined) [Bethanechol chloride] ; condition: cell viability strictly below 100. Does it hold?
Result block: YES

Query block: Input Clc1ccc2c(c1)C(N1CCNCC1)=Nc1ccccc1O2 [Amoxapine] ; condition: cell viability strictly below 100. Does it hold?
Result block: YES

Query block: Input CCC1C(O)C2C3CCC(C(C)CCC(=O)O)C3(C)CCC2C2(C)CCC(O)CC12 (centres undefined) [Obeticholic Acid] ; condition: cell viability strictly below 100. Does it hold?
Result block: NO

Query block: Input COc1ccccc1OCC(O)CN1CCN(CC(=O)Nc2c(C)cccc2C)CC1 (centres undefined) [Ranolazine] ; condition: cell viability strictly below 100. Does it hold?
Result block: NO
